Measured values drawn from ChEMBL document CHEMBL4673358 for this set.

# ASSAYED SYSTEM: hERG (KCNH2) (Homo sapiens, UniProt Q12809)
# Sequence (Q12809 whole entry): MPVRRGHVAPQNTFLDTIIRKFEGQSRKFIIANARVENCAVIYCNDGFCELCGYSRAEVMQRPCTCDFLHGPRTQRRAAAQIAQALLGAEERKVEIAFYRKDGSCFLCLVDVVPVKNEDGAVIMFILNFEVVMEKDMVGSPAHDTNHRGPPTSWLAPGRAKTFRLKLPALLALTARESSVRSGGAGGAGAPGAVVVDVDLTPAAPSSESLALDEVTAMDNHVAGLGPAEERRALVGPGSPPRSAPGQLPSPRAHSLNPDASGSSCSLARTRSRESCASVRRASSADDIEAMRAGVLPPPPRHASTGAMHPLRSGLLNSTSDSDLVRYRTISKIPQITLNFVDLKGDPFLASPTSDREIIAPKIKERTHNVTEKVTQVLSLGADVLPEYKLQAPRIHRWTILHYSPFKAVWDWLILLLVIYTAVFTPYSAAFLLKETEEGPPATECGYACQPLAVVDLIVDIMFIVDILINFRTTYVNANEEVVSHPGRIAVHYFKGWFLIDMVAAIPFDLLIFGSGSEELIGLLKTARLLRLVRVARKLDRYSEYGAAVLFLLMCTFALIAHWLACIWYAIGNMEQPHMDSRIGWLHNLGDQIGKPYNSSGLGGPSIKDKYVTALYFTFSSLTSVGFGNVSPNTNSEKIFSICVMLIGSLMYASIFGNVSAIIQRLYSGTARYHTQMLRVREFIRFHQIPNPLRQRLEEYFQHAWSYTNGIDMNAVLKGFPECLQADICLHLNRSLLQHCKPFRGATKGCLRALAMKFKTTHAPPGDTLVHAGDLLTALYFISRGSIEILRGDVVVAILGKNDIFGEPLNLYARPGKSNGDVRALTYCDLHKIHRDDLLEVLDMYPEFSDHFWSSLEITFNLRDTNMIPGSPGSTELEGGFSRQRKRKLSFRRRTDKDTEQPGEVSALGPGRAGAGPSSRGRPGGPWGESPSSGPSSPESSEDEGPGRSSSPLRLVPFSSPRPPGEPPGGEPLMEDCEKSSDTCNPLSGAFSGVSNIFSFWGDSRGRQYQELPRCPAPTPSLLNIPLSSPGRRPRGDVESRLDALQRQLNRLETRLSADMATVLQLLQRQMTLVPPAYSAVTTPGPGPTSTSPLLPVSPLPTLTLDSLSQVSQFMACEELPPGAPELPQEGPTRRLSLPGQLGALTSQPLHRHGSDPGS
# ASSAY METHOD TEXT: Inhibition of human ERG assessed as reduction in channel tail current at 10 uM by patch clamp assay relative to control
ASSAY METRIC: inhibition at 10 µM (%)

• C[C@H](C(=O)Nc1ccc(Cl)cc1)[C@H]1CC[C@]2(CC1)COc1cc(C(F)(F)F)ccc12 = 44

###

# ASSAY METHOD TEXT: AUC(0 to 72 hrs) in mouse at 10 mg/kg, po
# Format: ADME, organism-based
# Parameters: time < 72 hr, route oral, dose 10 mg/kg
# SETTINGS: in vivo
ASSAY METRIC: AUC(0-t) at 72 h (µM·h)

* C[C@H](C(=O)Nc1ccc(Cl)cc1)[C@H]1CC[C@]2(CC1)COc1cc(C(F)(F)F)ccc12 | 105
